Reported TEER 24 h values for the following compounds.
# System: Caco-2 cells
# assay_comment: Transepithelial electrical resistance (TEER) of Caco-2 cell monolayers
# Format: cell-based
# Set-up: unit not given here
# measurement_setup: Table 9; 24 h after experiment, in culturing medium

{"chem_smiles": "CCCCCCCCCC(=O)N[C@H](CC(C)C)C(=O)O", "TEER 24 h": 100.3}
{"chem_smiles": "CCCCCCCCCCCC(=O)N[C@@H](C(=O)O)C(C)C", "TEER 24 h": 99.3}
{"chem_smiles": "CCCCCCCCCCCCCC(=O)N[C@H](Cc1c[nH]c2ccccc12)C(=O)O", "TEER 24 h": 109.9}

* * *

# Test system: Caco-2 cells
# assay_comment: Transepithelial electrical resistance (TEER) of Caco-2 cell monolayers
# Type: cell-based
# Parameters: unit not given here
# measurement_setup: Table 9; 60 min; insulin analogue A14E, B25H, B29K(N(eps)Octadecanedioyl-gGlu-OEG-OEG), desB30 human insulin + 0.5 mM fatty acid acylated amino acid

{"compound": "CCCCCCCCCC(=O)N[C@H](CC(C)C)C(=O)O [N-decanoyl-D-leucine]", "TEER 60 min": 93.8}
{"compound": "CCCCCCCCCCCCCCCC(=O)N[C@H](CCC(=O)O)C(=O)O [N-hexadecanoyl-D-glutamic acid]", "TEER 60 min": 35.6}
{"compound": "CCCCCCCCCCCCCCCC(=O)N[C@H](CC(=O)O)C(=O)O [N-hexadecanoyl-D-aspartic acid]", "TEER 60 min": 24.1}
{"compound": "CCCCCCCCCCCCCC(=O)N[C@H](Cc1ccc(O)cc1)C(=O)O [N-tetradecanoyl-D-tyrosine]", "TEER 60 min": 44.4}
{"compound": "CCCCCCCCCCCCCC(=O)N[C@H](Cc1c[nH]c2ccccc12)C(=O)O [N-tetradecanoyl-D-tryptophan]", "TEER 60 min": 31.3}
{"compound": "CCCCCCCCCCCC(=O)N[C@@H](C(=O)O)C(C)C [N-dodecanoyl-D-valine]", "TEER 60 min": 66.1}
{"compound": "CCCCCCCCCCCC(=O)N[C@H](Cc1ccccc1)C(=O)O [N-dodecanoyl-D-phenylalanine]", "TEER 60 min": 37.6}
{"compound": "CCCCCCCCCCCC(=O)N1CCC[C@@H]1C(=O)O [N-dodecanoyl-D-proline]", "TEER 60 min": 76.6}
{"compound": "CCCCCCCCCCCCCC(=O)N[C@H](CC(=O)O)C(=O)O [N-tetradecanoyl-D-aspartic acid]", "TEER 60 min": 74.2}

* * *

# Tested on: Caco-2 cells
# assay_comment: Transepithelial electrical resistance (TEER) of Caco-2 cell monolayers
# Format: cell-based
# Design: unit not given here
# measurement_setup: Table 10; 24 h after experiment; L-amino acid counterparts
endpoint_label: TEER 24 h

{"compound": "CCCCCCCCCCCCCC(=O)N[C@@H](Cc1c[nH]c2ccccc12)C(=O)O [N-tetradecanoyl-L-tryptophan, reference compound]", "obs_value": 107.9}
{"compound": "CCCCCCCCCC(=O)N[C@@H](CC(C)C)C(=O)O [N-decanoyl-L-leucine, reference compound]", "obs_value": 101.8}
{"compound": "CCCCCCCCCCCC(=O)N[C@@H](CC(C)C)C(=O)O [N-dodecanoyl-L-leucine, reference compound]", "obs_value": 107.9}
{"compound": "CCCCCCCCCCCCCCCC(=O)N[C@@H](CC(=O)O)C(=O)O [N-hexadecanoyl-L-aspartic acid, reference compound]", "obs_value": 112.3}
{"compound": "CCCCCCCCCCCC(=O)N[C@H](C(=O)O)C(C)C [N-dodecanoyl-L-valine, reference compound]", "obs_value": 95.3}
{"compound": "CCCCCCCCCCCCCCCC(=O)N[C@@H](CCC(=O)O)C(=O)O [N-hexadecanoyl-L-glutamic acid, reference compound]", "obs_value": 109.5}
{"compound": "CCCCCCCCCCCC(=O)N[C@@H](Cc1ccccc1)C(=O)O [N-dodecanoyl-L-phenylalanine, reference compound]", "obs_value": 100.4}
{"compound": "CCCCCCCCCCCCCC(=O)N[C@@H](Cc1ccc(O)cc1)C(=O)O [N-tetradecanoyl-L-tyrosine, reference compound]", "obs_value": 122.3}
{"compound": "CCCCCCCCCCCCCC(=O)N[C@@H](CC(=O)O)C(=O)O [N-tetradecanoyl-L-aspartic acid, reference compound]", "obs_value": 100.2}

* * *

Reported TEER 24 h values for the following compounds.
# Test system: Caco-2 cells
# assay_comment: Transepithelial electrical resistance (TEER) of Caco-2 cell monolayers
# Assay type: cell-based
# Set-up: unit not given here
# measurement_setup: Table 12, comparison D- with L-counterparts; 24 h after experiment
endpoint_label: TEER 24 h

{"compound": "CCCCCCCCCCCC(=O)N[C@@H](C(=O)O)[C@H](C)CC [N-dodecanoyl-D-isoleucine]", "tested_target": "Caco-2 cells", "obs_value": 101.4}
{"compound": "CCCCCCCCCCCC(=O)N[C@@H](CC(C)C)C(=O)O [N-dodecanoyl-L-leucine, reference compound]", "tested_target": "Caco-2 cells", "obs_value": 107.9}
{"compound": "CCCCCCCCCCCCCCCC(=O)N[C@H](CC(=O)O)C(=O)O [N-hexadecanoyl-D-aspartic acid]", "tested_target": "Caco-2 cells", "obs_value": 112.2}
{"compound": "CCCCCCCCCCCC(=O)N[C@H](CC(C)C)C(=O)O [N-dodecanoyl-D-leucine]", "tested_target": "Caco-2 cells", "obs_value": 100}
{"compound": "CCCCCCCCCC(=O)N[C@@H](CC(C)C)C(=O)O [N-decanoyl-L-leucine, reference compound]", "tested_target": "Caco-2 cells", "obs_value": 101.8}
{"compound": "CCCCCCCCCC(=O)N[C@H](C(=O)O)[C@@H](C)CC [N-decanoyl-L-isoleucine, reference compound]", "tested_target": "Caco-2 cells", "obs_value": 102.4}
{"compound": "CCCCCCCCCC(=O)N[C@H](CC(C)C)C(=O)O [N-decanoyl-D-leucine]", "tested_target": "Caco-2 cells", "obs_value": 100.3}
{"compound": "CCCCCCCCCCCCCC(=O)N[C@H](CC(=O)O)C(=O)O [N-tetradecanoyl-D-aspartic acid]", "tested_target": "Caco-2 cells", "obs_value": 96.1}
{"compound": "CCCCCCCCCCCC(=O)N[C@H](C(=O)O)C(C)C [N-dodecanoyl-L-valine, reference compound]", "tested_target": "Caco-2 cells", "obs_value": 95.3}
{"compound": "CCCCCCCCCCCCCCCC(=O)N[C@@H](CC(=O)O)C(=O)O [N-hexadecanoyl-L-aspartic acid, reference compound]", "tested_target": "Caco-2 cells", "obs_value": 112.3}
{"compound": "CCCCCCCCCCCCCCCC(=O)N[C@@H](CCC(=O)O)C(=O)O [N-hexadecanoyl-L-glutamic acid, reference compound]", "tested_target": "Caco-2 cells", "obs_value": 109.5}
{"compound": "CCCCCCCCCCCC(=O)N[C@H](Cc1ccccc1)C(=O)O [N-dodecanoyl-D-phenylalanine]", "tested_target": "Caco-2 cells", "obs_value": 108.4}
{"compound": "CCCCCCCCCCCC(=O)N[C@@H](Cc1ccccc1)C(=O)O [N-dodecanoyl-L-phenylalanine, reference compound]", "tested_target": "Caco-2 cells", "obs_value": 100.4}
{"compound": "CCCCCCCCCCCCCC(=O)N[C@@H](Cc1c[nH]c2ccccc12)C(=O)O [N-tetradecanoyl-L-tryptophan, reference compound]", "tested_target": "Caco-2 cells", "obs_value": 107.9}
{"compound": "CCCCCCCCCCCC(=O)N1CCC[C@@H]1C(=O)O [N-dodecanoyl-D-proline]", "tested_target": "Caco-2 cells", "obs_value": 99.1}

* * *

Reported TEER 24 h values for the following compounds.
# Tested on: Caco-2 cells
# assay_comment: Transepithelial electrical resistance (TEER) of Caco-2 cell monolayers
# Type: cell-based
# Parameters: unit not given here
# measurement_setup: Table 11; 24 h after experiment; insulin analogue A1(Nα,Nα-Dimethyl), A14E, B1(Nα,Nα-dimethyl), B25H, B29K(N(eps)Octadecanedioyl-gGlu-OEG-OEG), desB30 human insulin

{"compound": "CCCCCCCCCCCCCCCC(=O)N[C@H](CC(=O)O)C(=O)O", "TEER 24 h": 87.0}
{"compound": "CCCCCCCCCCCCCCCC(=O)N[C@@H](CC(=O)O)C(=O)O [N-hexadecanoyl-L-aspartic acid, reference compound]", "TEER 24 h": 97.2}
{"compound": "CCCCCCCCCCCC(=O)N[C@@H](CC(C)C)C(=O)O [N-dodecanoyl-L-leucine, reference compound]", "TEER 24 h": 91.7}
{"compound": "CCCCCCCCCCCC(=O)N[C@H](CC(C)C)C(=O)O", "TEER 24 h": 91.4}

* * *

# Test system: Caco-2 cells
# assay_comment: Transepithelial electrical resistance (TEER) of Caco-2 cell monolayers
# Type: cell-based
# Parameters: unit not given here
# measurement_setup: Table 12, comparison D- with L-counterparts; 24 h after experiment

{"molecule": "CCCCCCCCCCCCCC(=O)N[C@H](Cc1ccc(O)cc1)C(=O)O", "TEER 24 h": 125.3}
{"molecule": "CCCCCCCCCCCCCC(=O)N[C@H](Cc1c[nH]c2ccccc12)C(=O)O", "TEER 24 h": 109.9}
{"molecule": "CCCCCCCCCCCCCC(=O)N[C@@H](Cc1ccc(O)cc1)C(=O)O [N-tetradecanoyl-L-tyrosine, reference compound]", "TEER 24 h": 122.3}
{"molecule": "CCCCCCCCCCCC(=O)N[C@@H](C(=O)O)C(C)C", "TEER 24 h": 99.3}
{"molecule": "CCCCCCCCCCCCCCCC(=O)N[C@H](CCC(=O)O)C(=O)O", "TEER 24 h": 106.2}
{"molecule": "CCCCCCCCCCCCCC(=O)N[C@@H](CC(=O)O)C(=O)O [N-tetradecanoyl-L-aspartic acid, reference compound]", "TEER 24 h": 100.2}
